systemUnderTest: SHP2 protein (Homo sapiens, UniProt Q06124)
Sequence (Q06124 whole entry): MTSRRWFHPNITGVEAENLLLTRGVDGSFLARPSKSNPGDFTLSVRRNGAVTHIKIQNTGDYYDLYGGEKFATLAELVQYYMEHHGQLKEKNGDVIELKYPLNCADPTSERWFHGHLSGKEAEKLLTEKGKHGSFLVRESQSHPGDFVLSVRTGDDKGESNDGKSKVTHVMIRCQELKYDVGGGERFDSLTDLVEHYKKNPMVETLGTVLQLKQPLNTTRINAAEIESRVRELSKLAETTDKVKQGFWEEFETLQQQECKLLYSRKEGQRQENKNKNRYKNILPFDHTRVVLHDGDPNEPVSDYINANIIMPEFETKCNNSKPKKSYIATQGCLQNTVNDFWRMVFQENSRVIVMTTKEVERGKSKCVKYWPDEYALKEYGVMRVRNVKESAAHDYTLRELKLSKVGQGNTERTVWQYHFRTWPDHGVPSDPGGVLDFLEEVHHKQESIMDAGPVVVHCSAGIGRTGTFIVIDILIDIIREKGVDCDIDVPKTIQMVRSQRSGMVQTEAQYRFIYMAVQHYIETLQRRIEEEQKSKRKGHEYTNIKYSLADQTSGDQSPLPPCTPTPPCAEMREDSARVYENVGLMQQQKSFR
experimentSummary: Measurement of SHP2 protein degradation in MV-4-11 cells (western blotting)
Type: cell-based
Set-up: endogenous in cells; host or cells: MV-4-11
experimentalConditions: MV-4-11 cells, 10 nM, 24 hours
Quick reference for SHP2 degradation (%) 10 nM among some compounds
Answer as a quantity: numeral, then unit.

Please review the entries below; each comes with its answer.
{"columns": ["compound", "systemUnderTest", "SHP2 degradation (%) 10 nM"],
 "data": [
  ["Cc1ncsc1-c1ccc(CNC(=O)[C@@H]2C[C@@H](O)CN2C(=O)[C@@H](NC(=O)C2(F)CC2)C(C)(C)C)c(OCCCC2CCN(C(=O)CC(=O)Nc3cccc(Sc4ncc(N5CCC(C)(N)CC5)nc4N)c3Cl)CC2)c1 [Example 40]", "SHP2 protein (Homo sapiens, UniProt Q06124)", "67.0%"],
  ["Cc1ncsc1-c1ccc(CNC(=O)[C@@H]2C[C@@H](O)CN2C(=O)[C@@H](NC(=O)C2CC2)C(C)(C)C)c(OCCN2CCN(CC(=O)Nc3cccc(Sc4cnc(N5CCC(C)(CN)CC5)cn4)c3Cl)C(=O)C2)c1 [Example 79]", "SHP2 protein (Homo sapiens, UniProt Q06124)", "78.4%"],
  ["Cc1ncsc1-c1ccc(CNC(=O)[C@@H]2C[C@@H](O)CN2C(=O)[C@@H](NC(=O)C2(F)CC2)C(C)(C)C)c(OCCC2CCN(C(=O)C(C)(C)C(=O)Nc3cccc(Sc4cnc(N5CCC(C)(CN)CC5)cn4)c3Cl)CC2)c1 [Example 49]", "SHP2 protein (Homo sapiens, UniProt Q06124)", "4.0%"],
  ["CC(=O)N[C@H](C(=O)N1C[C@H](O)C[C@H]1C(=O)NCc1ccc(-c2scnc2C)cc1OCC1CCN(C(=O)CC(=O)Nc2cccc(Sc3cnc(N4CCC(C)(CN)CC4)cn3)c2Cl)CC1)C(C)(C)C [Example 33]", "SHP2 protein (Homo sapiens, UniProt Q06124)", "90%"],
  ["Cc1ncsc1-c1ccc(CNC(=O)[C@@H]2C[C@@H](O)CN2C(=O)[C@@H](NC(=O)C2(F)CC2)C(C)(C)C)c(OCCCC2CCN(CCC(=O)Nc3cccc(Sc4cnc(N5CCC(C)(CN)CC5)cn4)c3Cl)CC2)c1 [Example 75]", "SHP2 protein (Homo sapiens, UniProt Q06124)", "19.5%"],
  ["Cc1ncsc1-c1ccc(CNC(=O)[C@@H]2C[C@@H](O)CN2C(=O)[C@@H](NC(=O)C2(F)CC2)C(C)(C)C)c(OCCC2CCN(C(=O)CCC(=O)Nc3cccc(Sc4cnc(N5CCC(C)(CN)CC5)cn4)c3Cl)CC2)c1 [Example 45]", "SHP2 protein (Homo sapiens, UniProt Q06124)", "68.0%"],
  ["Cc1ncsc1-c1ccc(CNC(=O)[C@@H]2C[C@@H](O)CN2C(=O)[C@@H](NC(=O)C2(F)CC2)C(C)(C)C)c(OCCC2CCN(C(=O)CC(=O)Nc3cccc(Sc4cnc(N5CCC(C)(CN)CC5)cn4)c3Cl)CC2)c1 [Example 36]", "SHP2 protein (Homo sapiens, UniProt Q06124)", "83.0%"],
  ["Cc1ncsc1-c1ccc(CNC(=O)[C@@H]2C[C@@H](O)CN2C(=O)[C@@H](NC(=O)C2(F)CC2)C(C)(C)C)c(OCCOc2cnc(N3CCC(CCCC(=O)Nc4cccc(Sc5cnc(N6CCC(C)(CN)CC6)cn5)c4Cl)CC3)nc2)c1 [Example 90]", "SHP2 protein (Homo sapiens, UniProt Q06124)", "6%"]
]}

Kindly consider the entry below.
Which SHP2 degradation (%) 10 nM value is on record for Cc1ncsc1-c1ccc(CNC(=O)[C@@H]2C[C@@H](O)CN2C(=O)[C@@H](NC(=O)C2(F)CC2)C(C)(C)C)c(OCCCN2CCC(CC(=O)Nc3cccc(Sc4ncc(N5CCC(C)(N)CC5)nc4N)c3Cl)CC2)c1 [Example 9] ? 39.6%
